- EXPERIMENTAL_TARGET: SARS-CoV-2 spike protein, B1.351 (beta variant), borne on lentiviral pseudovirus (SARS-CoV-2, B1.351)
- METHOD_NOTES: cell-based or functional assay
Reported Pseudo Neut, B1.351 IC50 (pM) is given for each of the following binders.
MEASURED_ENDPOINT: Pseudo Neut, B1.351 IC50 (pM)

[[record]]
binder = "antibody 1871 (antibody, V domains shown) VH: EVQLVESGGGLVKPGGSLRLSCVASGFSFSIYSMNWVRQAPGKGLEWVSYISSSSSYKYYADSVKGRFSVSRDNAKNSLYLQLNGLRAEDTAVYYCARDGYCPKGVCTYYGMDVWGQGTTVTVSA VL: EIVMTQSPATLSVSPGERVTLSCRASQSVRSRLAWFQQKPGQAPRLLIYDASIRATGIPARFSGSGSGTEFTLIISSLQSEDFAVYYCQQYDNWPPAYTFGQGTKLEIK"
val = 208

[[record]]
binder = "antibody 4441 (antibody, V domains shown) VH: EVQLVESGGGLVQPGRSLRLSCAASGLTFEDYAMHWVRQPPGKGLEWVSGVSWNSGTIGYADSVKGRFTISRDNAKNSLYLHMRSLGAEDTAMYYCAKDMGGRFSFFSLENDAFDIWGQGTMVIVSS VL: SYELTQPPSVSVSPGQTARITCSGDALPKQSTYWYQQKPGQAPVLVIYKDIERPSGIPERFSGSSSGTTVTLTISGVQAEDEADYYCQSADSSDTYVFGTGTKVTVL"
val = 2320

[[record]]
binder = "antibody 1823 (antibody, V domains shown) VH: EVQLVESGGGLVKPGGSLRLSCVASGFSFGLYTMNWVRQAPGKGLEWVSYISSSTSYKYYADSVKGRVSVSRDNAKNSLYLQLNGLRVEDTAVYYCARDGYCPNGICTYYGMDVWGQGTTVTVSA VL: EIVMTQSPATLSVSPGERATLSCRASQSVSSNLAWYQQKPGQAPRLLIYGASTRATGIPARFSGSGSGTEFTLTITGLQSEDFAVYYCQQYDKWPPAYSFGQGTKVEIK"
val = 133


Where do the numbers come from? From patent US20230382979A1.
